measured parameter: logP

smi=COc1ccncn1 measured_parameter=logP obs_value=0.54
smi=COC(=O)c1ccnnc1 measured_parameter=logP obs_value=-0.27
smi=NC(=O)c1ncccn1 measured_parameter=logP obs_value=-1.2
smi=COC(=O)c1cncnc1 measured_parameter=logP obs_value=0.03
smi=CN(C)c1ncccn1 measured_parameter=logP obs_value=1.07
smi=COc1cccnn1 measured_parameter=logP obs_value=0.08
smi=CCOc1ncccn1 measured_parameter=logP obs_value=0.74
smi=COc1ccnnc1 measured_parameter=logP obs_value=-0.31
smi=Cc1ncccn1 measured_parameter=logP obs_value=-0.05
smi=Nc1cnc(Cl)cn1 measured_parameter=logP obs_value=0.67
smi=Clc1ncccn1 measured_parameter=logP obs_value=0.36
smi=NC(=O)c1cncnc1 measured_parameter=logP obs_value=-0.92
smi=Nc1ccnnc1 measured_parameter=logP obs_value=-0.53
smi=CN(C)c1ccncn1 measured_parameter=logP obs_value=0.58
smi=COc1cncnc1 measured_parameter=logP obs_value=0.07
smi=CCOc1cncnc1 measured_parameter=logP obs_value=0.56
smi=CSc1ncccn1 measured_parameter=logP obs_value=1.01
smi=CC(=O)Nc1ccncn1 measured_parameter=logP obs_value=0.03
smi=NC(=O)c1ccnnc1 measured_parameter=logP obs_value=-0.96
